test-system: methionyl-tRNA synthetase (Trypanosoma brucei brucei)
assay-protocol: T. brucei MetRS inhibitors, orthogonal readout, late-stage follow-up, orthogonal assay for T. brucei MetRS inhibitor project, biochemical, fluorescence polarization, dose response, round 1 (AID 743154)
Active and inactive are the calls of the source. No rule for the calls is given here.
experimental-endpoint: IC50

[
  {
    "compound": "O=C(Cn1cc(C(=O)C(=O)N2CCOCC2)c2ccccc21)NCc1ccccc1",
    "IC50": "> 119 µM (inactive)"
  },
  {
    "compound": "CCc1ccc2[nH]c3nc(SCC(=O)NCc4cccc(OC)c4)nnc3c2c1",
    "IC50": "> 39.5 µM (inactive)"
  },
  {
    "compound": "COc1ccc(NC(=O)C2CC(=O)n3c(nc4ccccc43)N2)cc1 (centres undefined)",
    "IC50": "> 119 µM (inactive)"
  }
]

Lab note: record IC50 of "O=C(Cn1cc(C(=O)COc2ccccc2)c2ccccc21)Nc1cccc(C(F)(F)F)c1" tested on methionyl-tRNA synthetase (Trypanosoma brucei brucei).
> 39.5 µM (inactive)
